This listing pairs compounds with measured cell viability.
- System: Caco-2
- assayName: cell viability relative to DMSO; higher = less toxic
- conditionNotes: 72 h; 10000 nM
experimentalReadout: cell viability

• O=C(CCCCCCNC(=O)c1cnc(N(c2ccccc2)c2ccccc2)nc1)NO [ACY-1215] = 27.2%
• NC1CCN(c2nc3c(cc2F)c(=O)c(C(=O)O)cn3-c2ccc(F)cc2F)C1 (stereo unspecified) [tosufloxacin] = 81.7%
• NC[C@H]1O[C@H](O[C@H]2[C@H](O)[C@@H](O[C@H]3O[C@H](CO)[C@@H](O)[C@H](N)[C@H]3O)[C@H](N)C[C@@H]2N)[C@H](O)[C@@H](O)[C@@H]1O [kanamycin] = 96.1%
• Fc1ccc2c(CCNCc3cccc(OCC(F)(F)C(F)F)c3)c[nH]c2c1 [idalopirdine] = 109%
• COc1ccc(C(=O)c2c(C)n(CCN3CCOCC3)c3ccccc23)cc1 [pravadoline] = 50.8%
• CC1=C(C(=O)Nc2cc3cn[nH]c3cc2F)C(c2ccc(C(F)(F)F)cc2)CC(=O)N1 (stereo unspecified) = 102%
• C[C@H]1c2cccc(O)c2C(=O)C2=C(O)[C@]3(O)C(=O)C(C(N)=O)=C(O)[C@@H](N(C)C)[C@@H]3[C@@H](O)[C@@H]21 [doxycycline] = 88%
• NCCCC[C@H](NC(=O)[C@@H]1CCCN1C(=O)[C@@H]1CSSC[C@H](NC(=O)CNC(=O)CNC(=O)CN)C(=O)N[C@@H](Cc2ccc(O)cc2)C(=O)N[C@@H](Cc2ccccc2)C(=O)N[C@@H](CCC(N)=O)C(=O)N[C@@H](CC(N)=O)C(=O)N1)C(=O)NCC(N)=O [terlipressin] = 103%
• CC(=O)[C@H]1CC[C@H]2[C@@H]3CCC4=CC(=O)CC[C@]4(C)[C@H]3CC[C@]12C [progesterone] = 82.9%
• Clc1cccc(/C=N/N=C/c2cccc(Cl)c2)c1 [3,3'-dichlorobenzaldazine] = 103%
• Cc1[nH]c(/C=C2\C(=O)Nc3ccccc32)c(C)c1CCC(=O)O [orantinib] = 97.5%

----------
- System: Vero E6
- assayName: cell viability relative to DMSO; higher = less toxic
- conditionNotes: 72 h; 100 nM
experimentalReadout: cell viability

* C#Cc1cccc(Nc2ncnc3cc(OCCOC)c(OCCOC)cc23)c1 [erlotinib] | 92%
* COc1ccccc1N1CCN(CCN2C(=O)c3ccccc3C(C)(C)C2=O)CC1 [ARC-239] | 102%
* CCN(CC)CCOC(=O)c1cc(Cl)c(N)cc1OC [SDZ-205-557] | 99%
* O=C1COc2nccc(-c3ccccc3F)c2CN1Cc1cc(C(F)(F)F)cc(C(F)(F)F)c1 [GPBAR-A] | 98.9%
* CCc1cc2c(c(CC)n1)CCC(=O)N2Cc1ccc(-c2ccccc2-c2nnn[nH]2)cc1 [ZD-7155] | 91.6%
* Cc1[nH]nc(C(F)(F)F)c1Cc1sc2c(c1C(=O)N1C[C@](C)(O)CO1)c(=O)n(C)c(=O)n2C(C)C [AZD3965] | 101%
* CCN(c1ccccc1)c1cc(=NC)n(C)c(C)n1 [ZD-7288] | 99.3%
* CC(C)(C)C(=O)NCCCC(=O)O [pivagabine] | 96.4%
* CCCCCCCCN=c1ccn(CCCCCCCCCCn2ccc(=NCCCCCCCC)cc2)cc1 [octenidine] | 92.5%
* COc1ccc(CCCO[C@@H](Cn2ccnc2)c2ccc(OC)cc2)cc1 | 96.5%
